Data provenance is PubChem BioAssay AID1918952.

- Test system: LG0703-F948-PDC complex spheroid viability
- assay_details: Anticancer human tumor LG0703-F948-PDC patient-derived lung adenocarcinoma cell line growth inhibition
- run_conditions: second compound 0.316 µM; first compound 0.000949 µM; active compounds read low
property_measured: viability, T/C (%)
Your answer should be a plain number; it is taken to be in %.

Suppose we examine the compound Nc1ncn(C2CC(O)C(CO)S2)c(=O)n1 (stereo unspecified) + NC1CCC(NC2CC2c2ccccc2)CC1 ; what viability, T/C value has been reported?
124

Suppose we examine the compound CCc1c2c(nc3ccc(O)cc13)-c1cc3c(c(=O)n1C2)COC(=O)[C@]3(O)CC + NC1CCC(NC2CC2c2ccccc2)CC1 ; what viability, T/C value has been reported?
63.7

Suppose we examine the compound Nc1ncn(C2CC(O)C(CO)S2)c(=O)n1 (stereo unspecified) + NC1CC1c1ccc(-c2cccc(O)c2)cc1 ; what viability, T/C value has been reported?
106

Suppose we examine the compound Nc1ccn(C2OC(CO)C(O)C2(F)F)c(=O)n1 (stereo unspecified) + NC1CCC(NC2CC2c2ccccc2)CC1 ; what viability, T/C value has been reported?
67.5

Suppose we examine the compound CCc1c2c(nc3ccc(O)cc13)-c1cc3c(c(=O)n1C2)COC(=O)[C@]3(O)CC + NC1CC1c1ccc(-c2cccc(O)c2)cc1 ; what viability, T/C value has been reported?
54.8

Suppose we examine the compound Nc1ccn(C2OC(CO)C(O)C2(F)F)c(=O)n1 (stereo unspecified) + NC1CC1c1ccc(-c2cccc(O)c2)cc1 ; what viability, T/C value has been reported?
70.2

###

- Tested on: LG0703-F948-PDC complex spheroid viability
- assay_details: Anticancer human tumor LG0703-F948-PDC cell line growth inhibition;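 further: spheroids exposed to agents for seven days before readout; 100% = DMSO vehicle control wells as normalization base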
- run_conditions: second compound 10 µM; first compound 0.0316 µM; active compounds read low
property_measured: viability, T/C

Suppose we examine the compound CC(C)c1c(-c2ccccc2)nc2c(C#N)c[nH]n2c1=O + NC1CC1c1ccc(-c2cccc(O)c2)cc1 ; what viability, T/C value has been reported?
97.9%

Suppose we examine the compound Cn1ncnc1C1c2n[nH]c(=O)c3cc(F)cc(c23)NC1c1ccc(F)cc1 (centres undefined) + NC1CC1c1ccc(-c2cccc(O)c2)cc1 ; what viability, T/C value has been reported?
100%

Suppose we examine the compound CC(C)CC(NC(=O)C(Cc1ccccc1)NC(=O)c1cnccn1)B(O)O (centres undefined) + NC1CCC(NC2CC2c2ccccc2)CC1 ; what viability, T/C value has been reported?
0.13%

Suppose we examine the compound CC1COCCN1c1cc(-c2ccnn2C)c2ccnc(-c3ccn[nH]3)c2n1 (centres undefined) + NC1CCC(NC2CC2c2ccccc2)CC1 ; what viability, T/C value has been reported?
55.6%

###

Give viability, T/C for every item shown.
- System: LG0703-F948-PDC complex spheroid viability
- assay_details: Anticancer human tumor LG0703-F948-PDC cell line growth inhibition;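 further: spheroids exposed to agents for seven days before readout; 100% = DMSO vehicle control wells as normalization base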
- run_conditions: second compound 10 µM; first compound 0.000316 µM; active compounds read low
Your answer should be a plain number; it is taken to be in %.

Suppose we examine the compound CC(C)CC(NC(=O)C(Cc1ccccc1)NC(=O)c1cnccn1)B(O)O (stereo not drawn) + NC1CCC(NC2CC2c2ccccc2)CC1 ; what viability, T/C value has been reported?
1.9

Suppose we examine the compound CC(C)CC(NC(=O)CNC(=O)c1cc(Cl)ccc1Cl)B1OC(=O)CC(CC(=O)O)(C(=O)O)O1 (stereo not drawn) + NC1CCC(NC2CC2c2ccccc2)CC1 ; what viability, T/C value has been reported?
109

Suppose we examine the compound Cn1ncnc1C1c2n[nH]c(=O)c3cc(F)cc(c23)NC1c1ccc(F)cc1 (stereo not drawn) + NC1CC1c1ccc(-c2cccc(O)c2)cc1 ; what viability, T/C value has been reported?
108

Suppose we examine the compound CC(C)CC(NC(=O)C(Cc1ccccc1)NC(=O)c1cnccn1)B(O)O (stereo not drawn) + NC1CC1c1ccc(-c2cccc(O)c2)cc1 ; what viability, T/C value has been reported?
1.18

Suppose we examine the compound Cn1ncnc1C1c2n[nH]c(=O)c3cc(F)cc(c23)NC1c1ccc(F)cc1 (stereo not drawn) + NC1CCC(NC2CC2c2ccccc2)CC1 ; what viability, T/C value has been reported?
108

Suppose we examine the compound CC(C)CC(NC(=O)CNC(=O)c1cc(Cl)ccc1Cl)B1OC(=O)CC(CC(=O)O)(C(=O)O)O1 (stereo not drawn) + NC1CC1c1ccc(-c2cccc(O)c2)cc1 ; what viability, T/C value has been reported?
83.2

Suppose we examine the compound CC[C@@]1(O)C(=O)OCc2c1cc1n(c2=O)Cc2cc3c(CN(C)C)c(O)ccc3nc2-1 + NC1CCC(NC2CC2c2ccccc2)CC1 ; what viability, T/C value has been reported?
130

Suppose we examine the compound CC[C@@]1(O)C(=O)OCc2c1cc1n(c2=O)Cc2cc3c(CN(C)C)c(O)ccc3nc2-1 + NC1CC1c1ccc(-c2cccc(O)c2)cc1 ; what viability, T/C value has been reported?
103

###

- System: LG0703-F948-PDC complex spheroid viability
- assay_details: Anticancer human tumor LG0703-F948-PDC cell line growth inhibition;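 further: spheroids exposed to agents for seven days before readout; 100% = DMSO vehicle control wells as normalization base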
- run_conditions: second compound 0.316 µM; first compound 0.00949 µM; active compounds read low
- Text: Multicellular complex tumor spheroid response to LSD1 Inhibitor Iadademstat in combination with a variety of drugs and investigational agents in selected tumor cell lines The current study was undertaken to assess response to LSD1 inhibitors in combination with standard-of-care drugs and investigational agents in solid tumor complex spheroid models as well as in the K-562 leukemia. […] Compounds. […] If the clinical Cmax for an agent had not been determined, the highest concentration tested was 10 microM. […]
# label = TRUE if viability, T/C < 90% else FALSE

Find out if reported viability, T/C for CCN(c1cc(-c2ccc(CN3CCOCC3)cc2)cc(C(=O)NCc2c(C)cc(C)[nH]c2=O)c1C)C1CCOCC1 + NC1CC1c1ccc(-c2cccc(O)c2)cc1 is less than 90%
FALSE

Find out if reported viability, T/C for O=C(C=Cc1cccc(S(=O)(=O)Nc2ccccc2)c1)NO + NC1CCC(NC2CC2c2ccccc2)CC1 is less than 90%
FALSE

Find out if reported viability, T/C for Nc1ccn(C2OC(CO)C(O)C2(F)F)c(=O)n1 (stereo not drawn) + NC1CCC(NC2CC2c2ccccc2)CC1 is less than 90%
TRUE

Find out if reported viability, T/C for Nc1ccccc1NC(=O)c1ccc(CNC(=O)OCc2cccnc2)cc1 + NC1CC1c1ccc(-c2cccc(O)c2)cc1 is less than 90%
TRUE

Find out if reported viability, T/C for COc1cc(C2c3cc4c(cc3C(OC3OC5COC(C)OC5C(O)C3O)C3COC(=O)C23)OCO4)cc(OC)c1O (stereo not drawn) + NC1CC1c1ccc(-c2cccc(O)c2)cc1 is less than 90%
FALSE

Find out if reported viability, T/C for CCc1c2c(nc3ccc(O)cc13)-c1cc3c(c(=O)n1C2)COC(=O)[C@]3(O)CC + NC1CCC(NC2CC2c2ccccc2)CC1 is less than 90%
TRUE

Find out if reported viability, T/C for Nc1ccn(C2OC(CO)C(O)C2(F)F)c(=O)n1 (stereo not drawn) + NC1CC1c1ccc(-c2cccc(O)c2)cc1 is less than 90%
TRUE

###

Give viability, T/C for every item shown.
- Tested on: LG0703-F948-PDC complex spheroid viability
- assay_details: Anticancer human tumor LG0703-F948-PDC cell line growth inhibition;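 further: spheroids exposed to agents for seven days before readout; 100% = DMSO vehicle control wells as normalization base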
- run_conditions: second compound 1 µM; first compound 0.316 µM; active compounds read low
- Text: Multicellular complex tumor spheroid response to LSD1 Inhibitor Iadademstat in combination with a variety of drugs and investigational agents in selected tumor cell lines The current study was undertaken to assess response to LSD1 inhibitors in combination with standard-of-care drugs and investigational agents in solid tumor complex spheroid models as well as in the K-562 leukemia. […] Compounds. […] If the clinical Cmax for an agent had not been determined, the highest concentration tested was 10 microM. […]
Your answer should be a plain number; it is taken to be in %.

Param readout= viability, T/C; system= LG0703-F948-PDC complex spheroid viability; entry= CC1COCCN1c1cc(C2(S(C)(=N)=O)CC2)nc(-c2ccnc3[nH]ccc23)n1 (configuration not stated) + NC1CCC(NC2CC2c2ccccc2)CC1 ; returns value.
99.6

Param readout= viability, T/C; system= LG0703-F948-PDC complex spheroid viability; entry= Nc1ncn(C2CC(O)C(CO)O2)c(=O)n1 (configuration not stated) + NC1CC1c1ccc(-c2cccc(O)c2)cc1 ; returns value.
96.3

Param readout= viability, T/C; system= LG0703-F948-PDC complex spheroid viability; entry= O=C(c1cc(Cc2n[nH]c(=O)c3ccccc23)ccc1F)N1CCN(C(=O)C2CC2)CC1 + NC1CCC(NC2CC2c2ccccc2)CC1 ; returns value.
123

Param readout= viability, T/C; system= LG0703-F948-PDC complex spheroid viability; entry= O=C(C=Cn1cnc(-c2cc(C(F)(F)F)cc(C(F)(F)F)c2)n1)NNc1cnccn1 + NC1CCC(NC2CC2c2ccccc2)CC1 ; returns value.
29.7

Param readout= viability, T/C; system= LG0703-F948-PDC complex spheroid viability; entry= COc1ccc([C@@H](O)c2cc(-c3ncnc4cc(N5CCOCC5)ccc34)c(F)cc2Cl)nn1 + NC1CC1c1ccc(-c2cccc(O)c2)cc1 ; returns value.
98.7

Param readout= viability, T/C; system= LG0703-F948-PDC complex spheroid viability; entry= COc1ccc([C@@H](O)c2cc(-c3ncnc4cc(N5CCOCC5)ccc34)c(F)cc2Cl)nn1 + NC1CCC(NC2CC2c2ccccc2)CC1 ; returns value.
84

Param readout= viability, T/C; system= LG0703-F948-PDC complex spheroid viability; entry= CC(C)c1c(-c2ccccc2)nc2c(C#N)c[nH]n2c1=O + NC1CC1c1ccc(-c2cccc(O)c2)cc1 ; returns value.
109
